# experiment: Quantitative High-Throughput drug screen in 47 multiple myeloma cell lines against the NCATS MIPE library collection: OPM2_DSMZ cell viability assay (AID 1919872); note: nearly all actives have a fitted effect of over 30% in size
# condition: OPM2 myeloma viability, CellTiter-Glo ATP luminescence, 48 h; series mostly up to 45.8 µM
Results filed as inconclusive are left out. Activity calls are given as the source filed them. Calls come from the whole dose curve; as a rule, active = well fitted cell-killing curve with a large enough effect; inconclusive = small, poorly fitted or top-dose-only effect, or effect the other way; inactive = no such curve, though single readings can be large or run the other way.
Outcome codes: active, inactive

{"columns": ["mol smiles", "group"],
 "data": [
  ["COc1ccc(CCC(=O)Nc2nc3ccc(Cl)cc3s2)cc1OC", "inactive"],
  ["CN(C)N=Nc1nc[nH]c1C(N)=O", "inactive"],
  ["COc1nccc(-c2c(-c3ccc(F)cc3)ncn2C2CCNCC2)n1", "inactive"],
  ["C[C@H]1O[C@@H](n2cc(F)c(=O)[nH]c2=O)[C@H](O)[C@H]1O", "inactive"],
  ["CNc1nc(-c2ccc3c(N)n[nH]c3c2)cc(N2C[C@@H](C(=O)NC3CCCCC3)CC[C@@H]2C)n1", "active"]
]}

====

# experiment: Quantitative High-Throughput drug screen in 47 multiple myeloma cell lines against the NCATS MIPE library collection: Karpas620_DSMZ cell viability assay (AID 1918959); note: nearly all actives have a fitted effect of over 30% in size
# condition: Karpas620 myeloma viability, CellTiter-Glo ATP luminescence, 48 h; series mostly up to 45.8 µM
# Source text: PI: Beverly A. Mock Ph.D. Laboratory of Cancer Biology and Genetics, Center for Cancer Research, National Cancer Institute, National Institute of Health, Bethesda, Maryland […] 5; Detector; 425V; Luminescence; Viewlux PerkinElmer. […] 1. […] Briefly, the corresponding myeloma cell lines were screened in 1,536-well plates with 500 cells, 5-uL per well for inhibition of cell viability (assessed by measuring ATP levels with CellTiterGlo). […]
Records with an inconclusive call do not appear. Activity calls are given as the source filed them. Calls follow the shape of the dose curve; as a rule, active = well fitted cell-killing curve with a large enough effect; inconclusive = small, poorly fitted or top-dose-only effect, or effect the other way; inactive = no such curve, though single readings can be large or run the other way.
Outcome codes: active, inactive

{"columns": ["molecule", "group"],
 "data": [
  ["CC[C@H](C=C[C@@H](C)[C@H]1CC[C@H]2[C@@H]3CC=C4C[C@@H](O)CC[C@]4(C)[C@@H]3CC[C@]12C)C(C)C", "inactive"],
  ["Cc1ccccc1C(C(=O)NC1CCCCC1)N(C(=O)CNc1ccc(C#N)cc1)c1cccc(F)c1 (centres undefined)", "inactive"],
  ["CC(C)c1onc(-c2c(Cl)cccc2Cl)c1COc1ccc(C=Cc2cccc(C(=O)O)c2)c(Cl)c1", "inactive"],
  ["Cc1ccc(C2=Nc3ccc(Cl)cc3OC2)cc1", "inactive"],
  ["CC(C)[C@H](O)C(=O)N[C@@H](C)C(=O)N[C@@H]1C(=O)N(C)CCc2ccccc21", "inactive"],
  ["O=C(O)CCC=CCC[C@@H]1[C@H](N2CCCCC2)[C@@H](O)C[C@@H]1OCc1ccc(-c2ccccc2)cc1", "inactive"],
  ["CCC(=C(c1ccc(O)cc1)c1ccc(OCCNC)cc1)c1ccccc1", "active"],
  ["C[C@H]1[C@H](O)O[C@@H]2O[C@@]3(C)CC[C@@H]4[C@H](C)CC[C@@H]1[C@@]24OO3", "active"],
  ["CC=C(C(=CC)c1ccc(O)cc1)c1ccc(O)cc1", "active"]
]}

====

# Tested on: DFO2036
# experiment: qHTS profiling for inhibitors of Plasmodium falciparum proliferation (AID 504749);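 note: 0% = DMSO vehicle and full inhibition = artemisinin control; nearly all actives have a fitted effect of over 60% in size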
# condition: P. falciparum in erythrocytes, SYBR Green DNA, 72 h; series mostly up to 28.7 µM
Inconclusive results are not listed. Calls of active or inactive are those of the source. Calls follow the shape of the dose curve; as a rule, active = well fitted inhibition curve with a large enough effect; inconclusive = small, poorly fitted or top-dose-only effect; inactive = flat fitted curve, though single readings scatter.

{"columns": ["mol smiles", "outcome"],
 "data": [
  ["N#Cc1c(N(CC(=O)O)CC(=O)O)sc(C(=O)O)c1CC(=O)O", "inactive"],
  ["CS(=O)(=O)c1ccc(C2=C(c3ccccc3)C(=O)OC2)cc1", "inactive"],
  ["C=C1c2cccc(O)c2C(O)=C2C(=O)[C@@]3(O)C(O)=C(C(N)=O)C(=O)[C@@H](N(C)C)[C@@H]3[C@@H](O)[C@H]12", "inactive"]
]}

====

# experiment: qHTS Screen of the MIPE 4.0 Collection Against Ewings Sarcoma (RDES) (AID 1259252); note: nearly all actives have a fitted effect of over 35% in size
# condition: RD-ES Ewing sarcoma viability, CellTiter-Glo, 48 h; series mostly up to 45.8 µM
Inconclusive results are not listed. The source made the active and inactive calls. Calls follow the shape of the dose curve; as a rule, active = well fitted inhibition curve with a large enough effect; inconclusive = small, poorly fitted or top-dose-only effect; inactive = no such curve, though single readings can be large or run the other way.
Outcome codes: active, inactive

{"columns": ["mol smiles", "group"],
 "data": [
  ["CC[C@H](C=C[C@@H](C)[C@H]1CC[C@H]2[C@@H]3CC=C4C[C@@H](O)CC[C@]4(C)[C@@H]3CC[C@]12C)C(C)C", "inactive"],
  ["N#CC(=C1Nc2ccccc2S1)c1ccnc(OCc2ccc(CN3CCOCC3)cc2)n1", "active"],
  ["C[C@@H](O)[C@H]1C(=O)N2C(C(=O)OCOC(=O)C(C)(C)C)=C(SC3CN(C4=NCCS4)C3)[C@H](C)[C@H]12", "inactive"],
  ["Nc1nc(Cl)nc2c1ncn2[C@@H]1O[C@H](CO)[C@@H](O)[C@H]1F", "inactive"],
  ["O=C1Nc2ccc(I)cc2C1=Cc1cc(Br)c(O)c(Br)c1", "active"],
  ["C[C@H]1COC2=C1C(=O)C(=O)c1c2ccc2c1CCCC2(C)C", "active"],
  ["COc1cc2c(cc1OC)CC(=O)N(CCCN(C)C[C@H]1Cc3cc(OC)c(OC)cc31)CC2", "active"],
  ["COc1cc(CNC(=O)CCCCC=CC(C)C)ccc1O", "active"],
  ["O=S(=O)(NCCNCC=Cc1ccc(Br)cc1)c1cccc2cnccc12", "active"],
  ["COc1cc(N2CCN(C)CC2)ccc1Nc1nc(N)c(C(=O)c2c(Cl)cccc2Cl)s1", "active"]
]}

====

# experiment: Quantitative High-Throughput drug screen in 47 multiple myeloma cell lines against the NCATS MIPE library collection: PCM6_Riken cell viability assay (AID 1919870); note: nearly all actives have a fitted effect of over 30% in size
# condition: CellTiter-Glo ATP, 48 h; series mostly up to 45.8 µM
Results filed as inconclusive are left out. Active and inactive are the calls of the source. Calls come from the whole dose curve; as a rule, active = well fitted cell-killing curve with a large enough effect; inconclusive = small, poorly fitted or top-dose-only effect, or effect the other way; inactive = no such curve, though single readings can be large or run the other way.
Outcome codes: T (active), F (inactive)

{"columns": ["compound", "group"],
 "data": [
  ["CCCCC[C@H](O)C=C[C@H]1[C@H](O)CC(=O)[C@H]1CCCCCCC(=O)O", "F"],
  ["OC1CCC(Nc2ncc3nc(Nc4c(F)cc(F)cc4F)n([C@@H]4CCOC4)c3n2)CC1 (some centres undefined)", "T"],
  ["COc1c(C)c2c(c(O)c1CC=C(C)CCC(=O)O)C(=O)OC2", "F"],
  ["CC(C)(CO)[C@@H](O)C(=O)NCCC(=O)O", "T"],
  ["O=c1[nH]nc(OCCCc2ccc(Cl)cc2)c(NCc2cccnc2)c1Br", "T"],
  ["Cc1ccc(NC(=O)Nc2cc(C(F)(F)F)ccc2F)cc1Nc1ccc2c(c1)NC(=O)C2=Cc1ccc[nH]1", "T"],
  ["Cc1cn([C@@H]2C[C@@H](O)[C@H](CO)O2)c(=O)[nH]c1=O", "F"],
  ["O=C(O)c1ccc(O)c2ncc(N3CCOCC3)cc12", "F"],
  ["Fc1ccc(C(c2ccc(F)cc2)N2CCN(CC=Cc3ccccc3)CC2)cc1", "T"],
  ["COc1ccc(C=CC(=O)Nc2ccccc2C(=O)O)cc1OC", "F"],
  ["COC(=O)[C@H](c1ccccc1Cl)N1CCc2sccc2C1", "F"],
  ["O=C(c1ccc(F)c(F)c1Nc1ccc(I)cc1F)N1CC(O)([C@H]2CCCCN2)C1", "T"],
  ["COc1ccc(-c2oc3c(CC=C(C)C)c(O)cc(O)c3c(=O)c2O)cc1", "T"],
  ["COc1cc(F)c(C(C)C)cc1-c1ccc(C(F)(F)F)cc1CN1C(=O)O[C@H](c2cc(C(F)(F)F)cc(C(F)(F)F)c2)[C@@H]1C", "T"],
  ["COc1cc2ncn(-c3cc(OCc4ccccc4S(C)(=O)=O)c(C#N)s3)c2cc1OC", "F"],
  ["COc1ccc2ccc(=O)oc2c1CC=C(C)C", "F"],
  ["NC[C@H]1O[C@H](O[C@@H]2[C@@H](O)[C@@H](O[C@H]3O[C@H](CO)[C@@H](O)[C@H](N)[C@@H]3O)[C@H](N)C[C@@H]2N)[C@H](O)[C@@H](O)[C@H]1O", "F"],
  ["CCCCCOC(=O)Nc1nc(=O)n([C@@H]2O[C@H](C)[C@@H](O)C2O)cc1F (some centres undefined)", "F"],
  ["C[C@@H]1[C@H](C)CC[C@]2(C(=O)O)CC[C@]3(C)C(=CC[C@@H]4[C@@]5(C)CC[C@H](O)C(C)(C)[C@H]5CC[C@]43C)[C@@H]12", "T"]
]}

====

# experiment: qHTS profiling of the MIPE4 collection as inhibitors of Plasmodium falciparum (DD2) proliferation (Rep 2) (AID 743346)
# condition: P. falciparum Dd2 in erythrocytes, SYBR Green DNA, 72 h; at 28.5 µM (top of the series) unless noted
parameter measured: parasite growth, % of control (lower = inhibition) (%)

{"columns": ["compound", "numeric readout"],
 "data": [
  ["O[C@@H](COc1cccc2ncccc12)CN1CCN(C2c3ccccc3[C@@H]3[C@H](c4ccccc42)C3(F)F)CC1 (some centres undefined)", 54.1],
  ["COc1cc(F)c(C(C)C)cc1-c1ccc(C(F)(F)F)cc1CN1C(=O)O[C@H](c2cc(C(F)(F)F)cc(C(F)(F)F)c2)[C@@H]1C", 31.9],
  ["CC(C)N(CCCNC(=O)Nc1ccc(C(C)(C)C)cc1)C[C@H]1O[C@@H](n2cc(Br)c3c(N)ncnc32)[C@H](O)[C@H]1O", 9.5],
  ["O=C(O)C1=CO[C@@H](O[C@@H]2O[C@H](CO)[C@H](O)[C@H](O)[C@H]2O)[C@@H]2C(CO)=CC[C@H]12", 83.9],
  ["Oc1ccc(C=Cc2cc(O)cc(O)c2)cc1", 40.6],
  ["CN1CCC(COc2cnc(-c3cccc(Cn4nc(-c5cccc(C#N)c5)ccc4=O)c3)nc2)CC1", 15.3],
  ["OC[C@H]1O[C@@H](OCCc2ccc(O)cc2)[C@H](O)[C@@H](O)[C@H]1O", 131],
  ["CCCCOCCOc1nc(-c2ccc(C(=O)O)c(F)c2)sc1C", 80.5],
  ["C[C@H]1COC2=C1C(=O)C(=O)c1c2ccc2c1CCCC2(C)C", 15.5],
  ["CCc1cccc(CC)c1NC(=O)N1Cc2[nH]nc(NC(=O)c3ccc(N4CCN(C)CC4)cc3)c2C1", 21.6],
  ["Cc1cc2c(cc1C1(c3ccc(C(=O)O)cn3)CC1)C(C)(C)CCC2(C)C", 77.6],
  ["C[C@]12CC[C@@H]3c4ccc(O)cc4CC[C@H]3[C@H]1[C@@H](O)[C@@H](O)[C@H]2O", 7.28],
  ["C[C@@H](NC(=O)c1ncnc(N)c1Cl)c1ncc(C(=O)Nc2cc(C(F)(F)F)c(Cl)cn2)s1", 58.8],
  ["O=C1Nc2ccc(I)cc2C1=Cc1cc(Br)c(O)c(Br)c1", 32.9],
  ["CN(C)CCN(C)C(=O)c1ccc(NC(=O)Nc2ccc(-c3nc(N4CCOCC4)c4ccn(CC(F)(F)F)c4n3)cc2)cc1", 20.5],
  ["CCCCC(C=O)NC(=O)C(CC(C)C)NC(=O)OCc1ccccc1 (centres undefined)", 9.29],
  ["CC[C@H](C)n1cc(C)c2c(C(=O)NCc3c(C)cc(C)[nH]c3=O)cc(-c3ccc(N4CCNCC4)nc3)cc21", 8.77],
  ["COC(=O)[C@H](c1ccccc1Cl)N1CCc2sccc2C1", 22.1],
  ["Cc1ccc2c(c1)C(=O)[C@]1(O)CCN(c3ccccc3)C1=N2", 89.8],
  ["CN1[C@H]2CC[C@H]1CC(OC(=O)c1c[nH]c3ccccc13)C2 (some centres undefined)", 19.2],
  ["N[C@@H](CC(=O)N1CCn2c(nnc2C(F)(F)F)C1)Cc1cc(F)c(F)cc1F", 84.5],
  ["O=C1NC(=O)C(c2cnc3ccccn23)=C1c1cn2c3c(cccc13)CN(C(=O)N1CCOCC1)CC2", 59.2],
  ["CC1(COc2ccc3c(c2)ncn3-c2ccc3cccc(N4CCC(N)CC4)c3n2)COC1", 14.5],
  ["C=CC(=O)Nc1cccc(Sc2nc(Nc3ccc(N4CCN(C)CC4)cc3)ncc2Cl)c1", 6.26],
  ["CCCCCCOC(=O)N=C(N)c1ccc(NCc2nc3cc(C(=O)N(CCC(=O)OCC)c4ccccn4)ccc3n2C)cc1", 16],
  ["CCC[C@H](N[C@@H](C)C(=O)N1[C@@H]2CCCC[C@H]2C[C@H]1C(=O)O)C(=O)OCC", 41.1],
  ["O=c1[nH]c(=O)n([C@H]2C[C@@H](O)[C@@H](CO)O2)cc1C(F)(F)F", 91.9],
  ["CCOC(=O)c1c(CSc2ccccc2)n(C)c2cc(Br)c(O)c(CN(C)C)c12", 12.1],
  ["CNc1nc(Nc2ccc(C(=O)N3CCOCC3)cc2OC)ncc1Cl", 56.9],
  ["CN(C)CCOc1ccc(-c2nc(-c3ccc4c(c3)CCC4=NO)c(-c3ccncc3)[nH]2)cc1", 6.72],
  ["CCCCn1c(=O)n(Cc2ccccc2F)c(=O)c2[nH]c(Cc3ccc(NC(C)=O)cc3)nc21", 43.7],
  ["CNC(=O)[C@H](CC1=CN=C2C=CCC=C12)NC(=O)[C@@H](CC(=O)NO)CC(C)C", 26.7]
]}
